Attribution: patent US20220235043A1

- ASSAY SUMMARY: GI Exposure PK in Mice
- Type: in vivo
- CONDITION DESCRIPTION: mouse; male BalbC mice, oral dose of 5 mg/kg, Jejunum
ASSAY READOUT: AUC (ng·h/mL)

In [3]: df
Out[3]:
                  compound_structure_string  assay_readout  measured_value
0  Cc1nnc(-c2cnc3[nH]ccc3c2N[C@H]2C[C@@H](NS(=O)(=O)c3cccc(C#N)c3)C2)s1            AUC           13300

###

- ASSAY SUMMARY: GI Exposure PK in Mice
- Type: in vivo
- CONDITION DESCRIPTION: mouse; male BalbC mice, oral dose of 5 mg/kg, Colon
ASSAY READOUT: Tmax (h)

In [3]: df
Out[3]:
                                   molecule  measured_value
0  Cc1nnc(-c2cnc3[nH]ccc3c2N[C@H]2C[C@@H](NS(=O)(=O)c3cccc(C#N)c3)C2)s1 [Example 75]               4

###

- TEST SYSTEM: Tyk-2 (Homo sapiens, UniProt P29597)
- Sequence (P29597 whole entry): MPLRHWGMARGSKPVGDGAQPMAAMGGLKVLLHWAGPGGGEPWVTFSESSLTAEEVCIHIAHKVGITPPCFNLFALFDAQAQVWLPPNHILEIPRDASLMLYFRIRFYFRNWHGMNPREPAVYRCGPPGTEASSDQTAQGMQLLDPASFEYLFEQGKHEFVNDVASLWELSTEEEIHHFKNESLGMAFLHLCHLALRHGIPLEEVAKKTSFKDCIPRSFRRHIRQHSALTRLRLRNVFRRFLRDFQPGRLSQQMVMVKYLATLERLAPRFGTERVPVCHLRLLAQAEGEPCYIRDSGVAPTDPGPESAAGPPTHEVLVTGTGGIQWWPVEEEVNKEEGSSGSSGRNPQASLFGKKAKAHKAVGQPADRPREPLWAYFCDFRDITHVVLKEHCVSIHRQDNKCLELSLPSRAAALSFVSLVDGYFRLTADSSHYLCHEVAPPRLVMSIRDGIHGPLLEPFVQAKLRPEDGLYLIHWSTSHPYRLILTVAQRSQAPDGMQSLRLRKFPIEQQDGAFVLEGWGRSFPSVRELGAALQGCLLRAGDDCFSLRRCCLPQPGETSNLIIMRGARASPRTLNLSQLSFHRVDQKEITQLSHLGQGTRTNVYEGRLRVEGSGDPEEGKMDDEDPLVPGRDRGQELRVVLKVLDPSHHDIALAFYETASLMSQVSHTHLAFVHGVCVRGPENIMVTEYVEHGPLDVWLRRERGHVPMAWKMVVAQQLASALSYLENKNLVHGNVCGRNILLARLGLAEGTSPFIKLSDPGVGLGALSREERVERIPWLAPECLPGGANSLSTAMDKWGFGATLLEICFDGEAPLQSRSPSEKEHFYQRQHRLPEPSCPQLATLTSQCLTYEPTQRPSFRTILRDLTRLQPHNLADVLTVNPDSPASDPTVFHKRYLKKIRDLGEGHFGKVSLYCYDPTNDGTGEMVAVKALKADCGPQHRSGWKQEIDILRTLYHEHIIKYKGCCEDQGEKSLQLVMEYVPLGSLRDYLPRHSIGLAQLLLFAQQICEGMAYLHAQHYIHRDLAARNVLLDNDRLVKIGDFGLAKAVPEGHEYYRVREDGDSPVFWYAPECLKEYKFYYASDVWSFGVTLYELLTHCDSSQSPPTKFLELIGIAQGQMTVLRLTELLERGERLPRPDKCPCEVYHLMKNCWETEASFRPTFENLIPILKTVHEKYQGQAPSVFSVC
ASSAY READOUT: IC50

                                   molecule                           test_system  assay_readout  measured_value
0  Cc1nccc(-c2cnc3[nH]ccc3c2N[C@H]2C[C@@H](NS(=O)(=O)c3cccc(C#N)c3)C2)n1  Tyk-2 (Homo sapiens, UniProt P29597)           IC50         ≤ 10 nM
1  CCCS(=O)(=O)N[C@H]1C[C@@H](Nc2c(-c3ncco3)cnc3[nH]ccc23)C1  Tyk-2 (Homo sapiens, UniProt P29597)           IC50    10 to 100 nM
2  CCCS(=O)(=O)N[C@H]1C[C@@H](Nc2c(-c3nnc(C)s3)cnc3[nH]ccc23)C1  Tyk-2 (Homo sapiens, UniProt P29597)           IC50    10 to 100 nM
3  Cc1nnc(-c2cnc3[nH]ccc3c2N[C@H]2C[C@@H](NS(=O)(=O)c3cccc(C#N)c3)C2)s1  Tyk-2 (Homo sapiens, UniProt P29597)           IC50         ≤ 10 nM
4  CCOC(=O)c1cnc2[nH]ccc2c1NC1CC(NS(=O)(=O)c2cc(C#N)ccn2)C1 (mixture of isomers)  Tyk-2 (Homo sapiens, UniProt P29597)           IC50  100 to 1000 nM
5  Cc1nccc(-c2cnc3[nH]ccc3c2N[C@H]2C[C@@H](NS(=O)(=O)c3cc(C#N)ccn3)C2)n1  Tyk-2 (Homo sapiens, UniProt P29597)           IC50    10 to 100 nM
6  Cc1nnc(-c2cnc3[nH]ccc3c2N[C@H]2C[C@@H](NS(=O)(=O)c3cccc(C#N)c3)C2)o1  Tyk-2 (Homo sapiens, UniProt P29597)           IC50    10 to 100 nM
7  CCOC(=O)c1cnc2[nH]ccc2c1N[C@H]1C[C@@H](NS(=O)(=O)c2cc(C#N)ccn2)C1  Tyk-2 (Homo sapiens, UniProt P29597)           IC50    10 to 100 nM
8  N#Cc1cccc(S(=O)(=O)N[C@H]2C[C@@H](Nc3c(-c4nnco4)cnc4[nH]ccc34)C2)c1  Tyk-2 (Homo sapiens, UniProt P29597)           IC50    10 to 100 nM

###

- ASSAY SUMMARY: GI Exposure PK in Mice
- Format: in vivo
- CONDITION DESCRIPTION: mouse; male BalbC mice, oral dose of 5 mg/kg, Duodenum
ASSAY READOUT: AUC (ng·h/mL)

>>> print(df.to_string())
                  compound_structure_string  measured_value
0  Cc1nnc(-c2cnc3[nH]ccc3c2N[C@H]2C[C@@H](NS(=O)(=O)c3cccc(C#N)c3)C2)s1            1510

###

In this section, each of the compounds is paired with its reported IC50.
- TEST SYSTEM: JAK3 (a.a. 781-1124) (Homo sapiens, UniProt P52333)
- Sequence (P52333 781-1124): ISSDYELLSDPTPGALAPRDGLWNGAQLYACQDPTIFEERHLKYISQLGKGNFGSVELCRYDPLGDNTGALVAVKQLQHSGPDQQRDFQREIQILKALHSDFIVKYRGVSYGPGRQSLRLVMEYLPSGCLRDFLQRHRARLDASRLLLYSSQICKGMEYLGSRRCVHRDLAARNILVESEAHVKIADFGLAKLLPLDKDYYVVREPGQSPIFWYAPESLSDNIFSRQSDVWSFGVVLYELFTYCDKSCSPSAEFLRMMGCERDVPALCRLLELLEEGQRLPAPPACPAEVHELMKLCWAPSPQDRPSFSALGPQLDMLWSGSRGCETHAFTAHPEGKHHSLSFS
ASSAY READOUT: IC50

>>> print(df.to_string())
                                    compound                               test_system  assay_readout  measured_value
 0  Cc1nnc(-c2cnc3[nH]ccc3c2N[C@H]2C[C@@H](NS(=O)(=O)c3cccc(C#N)c3)C2)s1  JAK3 (a.a. 781-1124) (Homo sapiens, UniProt P52333)           IC50    10 to 100 nM
 1  CCCS(=O)(=O)N[C@H]1C[C@@H](Nc2c(-c3nc(C(=O)NC)co3)cnc3[nH]ccc23)C1  JAK3 (a.a. 781-1124) (Homo sapiens, UniProt P52333)           IC50    10 to 100 nM
 2  CCCS(=O)(=O)N[C@H]1C[C@@H](Nc2c(-c3nnc(C)s3)cnc3[nH]ccc23)C1  JAK3 (a.a. 781-1124) (Homo sapiens, UniProt P52333)           IC50    10 to 100 nM
 3  CNC(=O)c1ccnc(-c2cnc3[nH]ccc3c2N[C@H]2C[C@@H](NS(=O)(=O)c3cccc(C#N)c3)C2)c1  JAK3 (a.a. 781-1124) (Homo sapiens, UniProt P52333)           IC50  100 to 1000 nM
 4  CCOC(=O)c1cnc2[nH]ccc2c1N[C@H]1C[C@H](NS(=O)(=O)c2cccc(C#N)c2)C1  JAK3 (a.a. 781-1124) (Homo sapiens, UniProt P52333)           IC50    10 to 100 nM
 5  Cc1nnc(-c2cnc3[nH]ccc3c2N[C@H]2C[C@@H](NS(=O)(=O)CCCC#N)C2)s1  JAK3 (a.a. 781-1124) (Homo sapiens, UniProt P52333)           IC50    10 to 100 nM
 6  N#Cc1cccc(S(=O)(=O)N[C@H]2C[C@@H](Nc3c(-c4ccncn4)cnc4[nH]ccc34)C2)c1  JAK3 (a.a. 781-1124) (Homo sapiens, UniProt P52333)           IC50         ≤ 10 nM
 7  CCOC(=O)c1cnc2[nH]ccc2c1N[C@H]1C[C@H](NS(=O)(=O)c2cc(C#N)ccn2)C1  JAK3 (a.a. 781-1124) (Homo sapiens, UniProt P52333)           IC50    10 to 100 nM
 8  N#Cc1cccc(S(=O)(=O)N[C@H]2C[C@@H](Nc3c(-c4nnco4)cnc4[nH]ccc34)C2)c1  JAK3 (a.a. 781-1124) (Homo sapiens, UniProt P52333)           IC50    10 to 100 nM
 9  CNC(=O)c1ccnc(-c2cnc3[nH]ccc3c2N[C@H]2C[C@@H](NS(=O)(=O)c3cc(C#N)ccn3)C2)c1  JAK3 (a.a. 781-1124) (Homo sapiens, UniProt P52333)           IC50  100 to 1000 nM
10  N#Cc1cccc(S(=O)(=O)N[C@H]2C[C@@H](Nc3c(-c4nccs4)cnc4[nH]ccc34)C2)c1  JAK3 (a.a. 781-1124) (Homo sapiens, UniProt P52333)           IC50         ≤ 10 nM
11  CCCS(=O)(=O)N[C@H]1C[C@@H](Nc2c(-c3ncco3)cnc3[nH]ccc23)C1  JAK3 (a.a. 781-1124) (Homo sapiens, UniProt P52333)           IC50    10 to 100 nM
12  CNC(=O)c1csc(-c2cnc3[nH]ccc3c2N[C@H]2C[C@@H](NS(=O)(=O)c3cccc(C#N)c3)C2)n1  JAK3 (a.a. 781-1124) (Homo sapiens, UniProt P52333)           IC50    10 to 100 nM
13  CCOC(=O)c1cnc2[nH]ccc2c1NC1CC(NS(=O)(=O)c2cc(C#N)ccn2)C1 (mixture of isomers)  JAK3 (a.a. 781-1124) (Homo sapiens, UniProt P52333)           IC50    10 to 100 nM
14  CCCS(=O)(=O)N[C@H]1C[C@@H](Nc2c(-c3nnco3)cnc3[nH]ccc23)C1  JAK3 (a.a. 781-1124) (Homo sapiens, UniProt P52333)           IC50    10 to 100 nM

###

- ASSAY SUMMARY: GI Exposure PK in Mice
- Format: in vivo
- CONDITION DESCRIPTION: mouse; male BalbC mice, oral dose of 5 mg/kg, Ileum
ASSAY READOUT: Tmax (h)

>>> df
                  compound_structure_string  measured_value
0  Cc1nnc(-c2cnc3[nH]ccc3c2N[C@H]2C[C@@H](NS(=O)(=O)c3cccc(C#N)c3)C2)s1               2
